Entries annotated with measured TGI
Tested on: UACC-62 melanoma
Experiment: NCI tumour cell line growth inhibition, 48 h

Cc1[nH]c2ccccc2c(=O)c1CC=C(Cl)Cl : > 100 µM
COc1ccc2c(c1)CCN1CCc3ccccc3CC21 (configuration not stated) : > 100 µM
CC(=O)O[C@]12CCCCCC1C1(O)C(O)CCCC[C@H]12 (some centres not stated) : > 100 µM
CCNC(=O)Nc1cccc(NC(=O)NCC)n1 : > 100 µM
Cc1nc2sc3ccccc3n2c(=O)c1N=Nc1ccc(Cl)cc1 : > 100 µM

I'd like to know its TGI. The molecule in question is `O=c1oc2ccc([N+](=O)[O-])cc2c(Nc2ccc3c(c2)Oc2ccccc2O3)c1[N+](=O)[O-]`
> 100 µM

Now give it for `CN(C)C(=O)[C@H](O)[C@H](Cc1ccccc1)NC(=O)c1cc2cc(Cl)ccc2[nH]1` too.
32.7 µM

###

Entries annotated with measured TGI
Test system: SR leukemia
Assay: NCI tumour cell line growth inhibition, 48 h

Worked cases, TGI given:
Nc1[nH]nc2nc3ccc(C(F)(F)F)cc3nc12 : > 100 µM
O=C(NCO)NCOCn1c(=O)n(CO)c(=O)n(CO)c1=O : 81.9 µM
CCOC(=O)NC(=O)c1cn(CCCOC(=O)CCCCCCCCCCC(=O)OCCCn2cc(C(=O)NC(=O)OCC)c(=O)[nH]c2=O)c(=O)[nH]c1=O : > 100 µM

I'd like to know its TGI. The compound in question is `CCCSc1nc(COC(=O)NC)c(COC(=O)NC)n1C`
> 100 µM

Now give it for `CCOc1cc(C(C)(C)C)ccc1C1=N[C@@](C)(c2ccc(Cl)cc2)[C@@](C)(c2ccc(Cl)cc2)N1C(=O)N1CCN(CCCS(C)(=O)=O)CC1` too.
> 100 µM

Now give it for O=C(Nc1c(Cl)cc([N+](=O)[O-])cc1Cl)C(=O)C(C1OC(=O)c2ccccc21)[N+](=O)[O-] (stereo not drawn) too.
> 100 µM

Now give it for `Nc1ccc(-c2nc3ccc(Cc4ccc5nc(-c6ccc(N)cc6)[nH]c5c4)cc3[nH]2)cc1` too.
> 100 µM

Now give it for `CC(C)(C[C@H]1CN(S(=O)(=O)c2cccc(C(F)(F)F)c2)c2cc(-c3cc(F)cc(OC(F)F)c3)ccc2O1)C(=O)O` too.
23.8 µM

###

Test system: MDA-MB-231 breast
Assay: NCI tumour cell line growth inhibition, 48 h
reported property: TGI (µM)
The figure you give is taken to be in µM; do not add the unit.

Worked cases, TGI given:
COc1ccc(-c2nn(-c3ccc(NC(=O)Nc4cc(C(F)(F)F)cc(C(F)(F)F)c4)cc3)cc2-c2ccncc2)cc1Cl : 4.44
O=c1cc(NC2CCN(CCCc3ccccc3)CC2)c2cc(Cl)ccc2o1 : 22.9
CCOc1cc(C(C)(C)C)ccc1C1=N[C@@](C)(c2ccc(Cl)cc2)[C@@](C)(c2ccc(Cl)cc2)N1C(=O)N1CCN(CCCS(C)(=O)=O)CC1 : 12.9

I'd like to know its TGI. The molecule in question is `O=S(=O)(Nc1cc(Sc2cccc3cccnc23)c(O)c2ccccc12)c1ccccc1`
6.01

###

Test system: SK-OV-3 ovarian
Experiment: NCI tumour cell line growth inhibition, 48 h
Entries annotated with measured TGI

Worked cases, TGI given:
O=c1cccc(C#CC#CC2=CCCCC2)o1 : 27.9 µM
O=C(CN(c1ccccc1)c1ccccc1)n1nnc2ccccc21 : > 100 µM
O=C(/C=C\c1ccc(NCc2ccc(C(=O)O)cc2)cc1)CCl : 28.8 µM
CC(=O)[C@@]1(O)CC[C@H]2[C@@H]3C[C@H](C)C4=CC(=O)C=C[C@]4(C)[C@@]3(F)[C@@H](O)C[C@@]21C : > 100 µM
CSc1sc2ccccc2[s+]1 : > 100 µM
CC(=O)NC1c2ccccc2C(C)(C)C12CCC1(CC2)OCCO1 (stereo not given) : > 10 µM

I'd like to know its TGI. The molecule in question is `Cn1c2ccccc2c(=NNc2cccc(C(=O)O)c2)c2ccccc21`
49.6 µM

Now give it for COc1ccc(C2OC(c3ccncc3)=NN2C)cc1OC (stereo not given) too.
> 100 µM

Now give it for O=C1OC2CCCC[C@@H]2C2C[C@]34CCCCC3[C@@H](C(=O)O4)C12 (stereo not given in full) too.
> 100 µM

Now give it for `CC(=O)N[C@H]1CSSC[C@@H](C(N)=O)NC(=O)[C@H](C(C)C)NC(=O)[C@H](C)NC(=O)[C@H](Cc2cnc[nH]2)NC1=O` too.
> 100 µM

###

Tested on: PC-3 prostate
Test: NCI tumour cell line growth inhibition, 48 h
Entries annotated with measured TGI
The figure you give is taken to be in µM; do not add the unit.

I'd like to know its TGI. The molecule in question is C=C1C(=O)OC2/C=C(\COC(C)=O)CCC(OC(C)=O)C3=CC(OC3=O)C12 (centres undefined)
30.5

Now give it for `Br[C](Br)(Br)[Hg][c]1ccccc1` too.
28

Now give it for `O=C1/C(=C/c2ccc(Cl)cc2)CSc2ccccc21` too.
44.5

Now give it for `O=C1c2cccnc2-c2nccc3c2c1nc1cc(Br)ccc13` too.
1.12

Now give it for `ClCc1cccc(Cn2cnc3nc(Cl)nc(Cl)c32)c1` too.
2.06

Now give it for `CCn1c(-c2ccc(OC(C)=O)cc2)c(C)c2cc(OC(C)=O)ccc21` too.
44.1

###

Test system: DU-145 prostate
Test: NCI tumour cell line growth inhibition, 48 h
reported property: TGI (µM)
The figure you give is taken to be in µM; do not add the unit.

CC1=C(O)C(=O)C=C2C1=CC=C1[C@@]2(C)CC[C@@]2(C)[C@@H]3C[C@](C)(C(=O)O)CC[C@]3(C)CC[C@]12C : 0.202

Now look at this one.
I'd like to know its TGI. The compound in question is O=C1CSC(c2ccc(Cl)cc2Cl)N1c1ccc(F)cc1 (stereo not given)
29.6

###

Tested on: K-562 leukemia
Assay: NCI tumour cell line growth inhibition, 48 h
Entries annotated with measured TGI

Worked cases, TGI given:
CC(C(O)Cc1ccccc1)N(C)N=Nc1ccc([N+](=O)[O-])cc1 (stereo not given) : > 100 µM
CC1CCCC(CC(=O)O)(CC(=O)O)C1 (stereo not given) : > 100 µM
Cc1[nH]c2ccccc2c(=O)c1CC=C(Cl)Cl : > 100 µM

Now look at this one.
I'd like to know its TGI. The molecule in question is COc1ccc2cc(C(C)C(=O)N3CCOC3=O)ccc2c1 (stereo not given)
> 100 µM

###

System: U251 CNS
Assay: NCI tumour cell line growth inhibition, 48 h
reported property: TGI

Worked cases, TGI given:
On1c(-c2ccccc2)nc2ccccc2c1=S : > 100 µM
C=CC/C=C/C/C=C/CCCCCCCc1cccc(O)c1C(=O)O : 46 µM
C1C[OH+]CC[OH+]CC[OH+]CC[OH+]CC[OH+]1.[Cl-].[V] : > 100 µM

Please provide the recorded TGI for CSc1cnc2ccccc2c1SC1CN(Cc2ccccc2)c2ccccc2C1=O (stereo unspecified) , tested on U251 CNS.
> 100 µM

Now give it for OCc1ccc(C2CC(c3ccco3)=NN2c2ccccc2)o1 (stereo unspecified) too.
> 100 µM

Now give it for `O=c1c2cc(Br)cc(Br)c2nc(CCCl)n1CCO` too.
> 100 µM

###

Tested on: MALME-3M melanoma
Assay: NCI tumour cell line growth inhibition, 48 h
Entries annotated with measured TGI

O=C1CC2CCCC23CC2(CCN13)OCCO2 (stereo unspecified) : > 100 µM

I'd like to know its TGI. The compound in question is CN1C2CCC1CC(C)(O)C2 (stereo unspecified)
> 100 µM

###

Entries annotated with measured log10 of TGI
Test system: RXF 393 renal
Assay: NCI tumour cell line growth inhibition, 48 h
Lab note - TGI converted to log10 from values in µM.

CC(=O)C(=CN1CCN(C(=O)c2ccco2)C1=S)C(C)=O : 0.80
O=c1cccc(C#CC#CC2=CCCCC2)o1 : 0.75
CC1=C(O)C(=O)C=C2C1=CC=C1[C@@]2(C)CC[C@@]2(C)[C@@H]3C[C@](C)(C(=O)O)CC[C@]3(C)CC[C@]12C : -1.62
O=C1c2cccnc2-c2nccc3c2c1nc1cc(Br)ccc13 : -0.45

I'd like to know its log10 of TGI. The compound in question is `O=C(CCC1OCCO1)Nc1cc(NCc2ccccc2)ccc1OCc1ccccc1`
1.89

###

Test system: OVCAR-3 ovarian
Test: NCI tumour cell line growth inhibition, 48 h
reported property: TGI (µM)
The figure you give is taken to be in µM; do not add the unit.

Worked cases, TGI given:
CC(C(O)Cc1ccccc1)N(C)N=Nc1ccc([N+](=O)[O-])cc1 (stereo not given) : 36.3
C#Cc1c(I)n(C2OC(CO[Si](C)(C)C(C)(C)C)C3OC(C)(C)OC32)c(=O)[nH]c1=O (stereo not given) : 3.56
COc1cc(OC)c(C2c3cc4c(cc3OC(N3CCCC3)C2C)OCO4)c(OC)c1 (stereo not given) : 20.5
COc1cc(/C=C/c2ccc(OC)c(OC)c2)cc(OC)c1 : 69
CC(CO)(CO)NCCCCn1ccc2c1C(=O)c1c(c(O)c3ccccc3c1O)C2=O : 29.1
COc1ccc(-c2nn(-c3ccc(NC(=O)Nc4cc(C(F)(F)F)cc(C(F)(F)F)c4)cc3)cc2-c2ccncc2)cc1Cl : 8.85
ClCc1cccc(Cn2cnc3nc(Cl)nc(Cl)c32)c1 : 2.86

Please provide the recorded TGI for `O=c1cc(NC2CCN(CCCc3ccccc3)CC2)c2cc(Cl)ccc2o1` , tested on OVCAR-3 ovarian.
19.4
